runConditions: in methanol, 283.15 K
experimentalEndpoint: solubility (mole fraction)
No unit in the answer, please; the number alone is enough.

stdin: Please look up its solubility (mole fraction): Nc1cc([N+](=O)[O-])ccc1Cl
stdout: 0.01

* * *

runConditions: in ethanol, 313.15 K
experimentalEndpoint: solubility (mole fraction)
No unit in the answer, please; the number alone is enough.

stdin: Please look up its solubility (mole fraction): Nc1cc([N+](=O)[O-])ccc1Cl
stdout: 0.0297

* * *

runConditions: in 2-butanone, 308.15 K
experimentalEndpoint: solubility (mole fraction)
No unit in the answer, please; the number alone is enough.

stdin: Please look up its solubility (mole fraction): Nc1cc([N+](=O)[O-])ccc1Cl
stdout: 0.165
